Target: T1, recombinant human TGF-β1 (R&D systems) (human, UniProt P01137 279-390)
T1 construct: Bought protein; immobilised on a CM3 chip (SPR) or on Dynabeads (ELISA), added to cells in the SBE reporter assay; also called TGF-β1 beads
T1 sequence (P01137 279-390 limits assumed): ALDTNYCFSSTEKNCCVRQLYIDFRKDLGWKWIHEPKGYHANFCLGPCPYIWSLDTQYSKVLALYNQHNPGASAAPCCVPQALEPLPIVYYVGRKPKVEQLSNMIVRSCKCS
Experiment: SPR, TGF-β1 immobilised, single cycle kinetics
pKd: −log10 of the molar value. Starred links: 1 amine or outer side, 2 acyl side, 3 side chain; linkers in the order of their positions; H or OH if unused. Positions of bridges follow the written chain, without caps; N, C: chain ends. Non-standard residues stand in square brackets, D forms with d. No end group written: not given here. KCOpipzaa = N6-(4-(carboxymethyl)piperazine-1-carbonyl)-L-lysine, O=C(NCCCC[C@H](N[*:1])C(=O)[*:2])N1CCN(CC(=O)[*:3])CC1; OCOmPEG10000 = methoxypolyethyleneglycol (10000) carbonate on Lys NZ; Trp(7-aza) = N[C@@H](Cc1c[nH]c2ncccc12)C(=O)O; 1Nal = N[C@@H](Cc1cccc2ccccc12)C(=O)O; Gly(NCH2CH2Ph) = O=C(O)CNCCc1ccccc1; 4Pal = N[C@@H](Cc1ccncc1)C(=O)O
READOUT: pKd

{"BINDER": "{CH2CO}-FWVVNVYDD[Gly(NCH2CH2Ph)]V[1Nal]YHVCG (thioether N-16, cyclic peptide; C-terminal G is a linker) [TGFb1_003]", "pKd": 9.14}

P = {CH2CO}-F[1Nal]V[KCOpipzaa]NV[4Pal]DD[Gly(NCH2CH2Ph)]V[1Nal]YHVCG (thioether N-16; not fully specified (C-terminus), cyclic peptide; C-terminal G is a linker) [TGFb1_010]
Q = {CH2CO}-F[Trp(7-aza)]VVNV[4Pal]DD[Gly(NCH2CH2Ph)]V[1Nal]YHVCG (thioether N-16; not fully specified (C-terminus), cyclic peptide; C-terminal G is a linker) [TGFb1_008]
pKd comparison. Which is larger, P or Q ? # respond with the chosen item's label
P
(P: 9.05, Q: 8.33)

1 = {CH2CO}-F[1Nal]VVNV[4Pal]DD[Gly(NCH2CH2Ph)]V[1Nal]YH[KCOpipzaa]CGK(OCOmPEG10000)-NH2 (thioether N-16, cyclic peptide; linker G K(OCOmPEG10000) at the C-terminus) [TGFb1_032]
2 = {CH2CO}-F[1Nal]VVNVYDD[Gly(NCH2CH2Ph)]V[1Nal]YHVCG (thioether N-16, cyclic peptide; C-terminal G is a linker) [TGFb1_001]
pKd comparison. Which is larger, 1 or 2 ? # respond with the chosen item's label
2
(2: 9.26, 1: 8.51)

Provenance of the data: patent US20250034212A1
